Target: T1, mouse serum albumin (mouse, UniProt P07724 25-608)
T1 construct: also called MSA; MuSA
T1 sequence (P07724 25-608 limits assumed): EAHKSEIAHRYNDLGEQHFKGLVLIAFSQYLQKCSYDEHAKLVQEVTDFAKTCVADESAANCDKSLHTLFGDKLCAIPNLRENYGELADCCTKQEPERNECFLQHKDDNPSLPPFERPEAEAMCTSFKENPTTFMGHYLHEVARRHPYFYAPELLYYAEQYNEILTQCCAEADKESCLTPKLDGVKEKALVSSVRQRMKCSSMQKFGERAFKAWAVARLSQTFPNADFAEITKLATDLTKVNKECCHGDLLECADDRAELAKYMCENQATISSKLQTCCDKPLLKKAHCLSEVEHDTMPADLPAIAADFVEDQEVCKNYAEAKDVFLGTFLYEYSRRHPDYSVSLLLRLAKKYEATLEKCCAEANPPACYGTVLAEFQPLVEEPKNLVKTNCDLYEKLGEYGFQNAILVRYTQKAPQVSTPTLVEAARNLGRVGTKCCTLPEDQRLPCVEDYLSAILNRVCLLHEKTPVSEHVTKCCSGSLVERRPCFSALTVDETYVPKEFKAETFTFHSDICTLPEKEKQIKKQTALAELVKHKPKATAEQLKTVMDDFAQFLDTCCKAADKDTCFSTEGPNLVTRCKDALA
Experiment: SPR, albumin immobilized;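 note: biacore SPR with human, rhesus or mouse serum albumin amine-coupled to the chip (about 1200 RU), 3 min association, 6-10 min dissociation, reference-subtracted traces fitted with a 1:1 model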
koff values by entry
Report only the number, with the unit s⁻¹ understood.

binder="PCSK9-PKE2 tandem Adnectin w/ his tag 4472_C06 (designed binder, also called ATI-1574; ADX_4472_C06) MGVSDVPRDLEVVAATPTSLLISWDAPAEGYGYYRITYGETGGNSPVQEFTVPVSKGTATISGLKPGVDYTITVYAVEFDFPGAGYYHRPISINYRTEPSTPPTPSPSTPPTPSPSGVSDVPRDLEVVAATPTSLLISWDAPAVTVRYYRITYGREVQKYSDLGPLYIYQEFTVPGSKSTATISGLKPGVDYTITVYAVTGSGESPASSKPISINYRTEHHHHHH" observed_value=0.000301

Indicate the recorded koff value for this binder: PCSK9-PKE2 tandem 4472_E06 (designed binder, The real molecule is ONE polypeptide: PCSK9 domain, undisclosed linker I (a code letter), PKE2 domain. It is given here as two chains because the linker letters are unknown., also called 4427_E06; not shown: The inter-domain linker) PCSK9 domain: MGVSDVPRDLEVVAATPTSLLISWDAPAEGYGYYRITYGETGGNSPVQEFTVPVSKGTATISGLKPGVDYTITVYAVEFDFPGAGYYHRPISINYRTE PKE2 domain: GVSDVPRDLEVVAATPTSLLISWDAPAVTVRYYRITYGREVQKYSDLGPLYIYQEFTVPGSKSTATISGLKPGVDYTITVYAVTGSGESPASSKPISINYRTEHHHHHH
0.0003

Indicate the recorded koff value for this binder: PKE2 Adnectin 2629_E06 (designed binder, 10Fn3 domain with modified CD loop; the entry includes the His6 tail; also called ADX_2629_E06) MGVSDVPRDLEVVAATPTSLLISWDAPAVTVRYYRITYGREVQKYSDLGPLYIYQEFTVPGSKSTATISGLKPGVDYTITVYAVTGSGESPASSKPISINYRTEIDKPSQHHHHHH
0.000242

Indicate the recorded koff value for this binder: PCSK9-PKE2 tandem 4472_F08 (designed binder, The real molecule is ONE polypeptide: PCSK9 domain, undisclosed linker F, PKE2 domain. It is given here as two chains because the linker letters are unknown., not shown: The inter-domain linker) PCSK9 domain: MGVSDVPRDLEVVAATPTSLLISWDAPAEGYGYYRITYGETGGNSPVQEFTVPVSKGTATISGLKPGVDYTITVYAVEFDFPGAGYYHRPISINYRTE PKE2 domain: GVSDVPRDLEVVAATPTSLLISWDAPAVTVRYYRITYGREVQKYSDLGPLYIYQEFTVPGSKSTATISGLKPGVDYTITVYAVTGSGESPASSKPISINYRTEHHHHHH
0.000344
